This collection of values is drawn from PubChem BioAssay AID2284339.

# System: NCBI gene 100038242
# TEST SUMMARY: CCTE_GLTED_xDIO3: CCTE's Xenopus Iodothyronine Deiodinase Type 3 (xDIO3) Inhibition Assay, Great Lakes Toxicology and Ecology Division (GLTED) Lab
Active and inactive are the calls of the source. How the source made its calls: active means hit-call score of the fitted dose curve at least 0.9, where 1 is the maximum; inactive means score below 0.9.
# output must be one of T for active, F for inactive

Solved entries:
# SMILES TEXT, TARGET ENTITY, ASSIGNED CLASS
records = [
    ("O=P(O)(O)CCC(F)(F)C(F)(F)C(F)(F)C(F)(F)C(F)(F)C(F)(F)C(F)(F)C(F)(F)F", "NCBI gene 100038242", "F"),
    ("COc1cc(O)c(CC=C(C)C)c(O)c1C(=O)/C=C/c1ccc(O)cc1", "NCBI gene 100038242", "T"),
    ("O=C(O)C(F)(F)C(F)(F)C(F)(F)C(F)(F)C(F)(F)C(F)(F)C(F)(F)C(F)(F)C(F)(F)C(F)F", "NCBI gene 100038242", "T"),
]

# evaluate next
Hi team, can someone confirm the assay call for C=CC(=O)OCC(F)(F)C(F)(F)C(F)(F)C(F)(F)C(F)(F)C(F)(F)C(F)(F)C(F)F ? T

* * *

The entries below come with measured AC50 values attached.
# Test system: NCBI gene 100038242
# TEST SUMMARY: CCTE_GLTED_xDIO3: CCTE's Xenopus Iodothyronine Deiodinase Type 3 (xDIO3) Inhibition Assay, Great Lakes Toxicology and Ecology Division (GLTED) Lab
# Description: CCTE_GLTED_xDIO3 is a cell-free, single-readout assay designed to test the inhibitory activity of chemicals toward Xenopus (frog) iodothyronine Deiodinase Type 3 (DIO3) enzyme. Enzyme is incubated in presence of test chemical for 3 hours during which uninhibited enzyme liberates free iodide from substrate. Free iodide is measured in a second step using the Sandell-Kolthoff method.CCTE_GLTED_xDIO3 is the assay component measured from the CCTE_GLTED_xDIO assay. […]
The source made the active and inactive calls. The calls were made as follows: active = hit-call score of the fitted dose curve at least 0.9, where 1 is the maximum; inactive = score below 0.9.

Example entries begin here.
# SMILES TEXT, AC50
records = [
    ("OC(O)(C(F)C(O)(O)C(F)(F)F)C(F)(F)F", "19.8 µM (active)"),
    ("O=C(O)C(F)(F)OC(F)(F)C(F)(F)OC(F)(F)C(F)(F)OC(F)(F)C(F)(F)C(F)(F)C(F)(F)F", "72.2 µM (active)"),
]

# input for lookup
For C=CC(=O)OCCC(F)(F)C(F)(F)C(F)(F)C(F)(F)F , write its AC50. 24.4 µM (active)
